All figures here come from ChEMBL document CHEMBL1681785.

test system: A2780; assay: Cytotoxicity against human A2780 cells assessed as intracellular ATP level at 10 uM after 72 hrs by luminometry; format: functional, cell-based
Calls of active or inactive are those of the source. The rule behind the calls is not given here.
Labels: t = active, f = inactive

| Compound | Assigned category |
| --- | --- |
| COc1ccc(-c2cc(=O)c3c(OC)c(OC)c(OC)c(OC)c3o2)cc1OC | f |
| COc1c2c(c3c(c1OC)[C@@]1(OC)C4=C(C(=O)[C@H](OC)[C@@]1(OC)O3)[C@H](OC)C[C@@H](c1ccccc1)O4)[C@H](O)C[C@@H](c1ccccc1)O2 | t |
| O=c1c(O[C@@H]2O[C@H](CO)[C@H](O)[C@H](O)[C@H]2O)c(-c2ccc(O)c(O)c2)oc2cc(O)cc(O)c12 [HYPEROSIDE] | f |
| O=c1cc(-c2ccc(O)cc2)oc2cc(O)cc(O)c12 | f |
| COc1cc2oc(-c3ccccc3)cc(=O)c2c(O)c1C | f |

* * *

molecular target: ATP-dependent translocase ABCB1 (Homo sapiens, UniProt P08183); assay: Inhibition of MDR1 expressed in MDCK cells using rhodamine 123 staining by flow cytometry
Sequence (P08183 whole entry): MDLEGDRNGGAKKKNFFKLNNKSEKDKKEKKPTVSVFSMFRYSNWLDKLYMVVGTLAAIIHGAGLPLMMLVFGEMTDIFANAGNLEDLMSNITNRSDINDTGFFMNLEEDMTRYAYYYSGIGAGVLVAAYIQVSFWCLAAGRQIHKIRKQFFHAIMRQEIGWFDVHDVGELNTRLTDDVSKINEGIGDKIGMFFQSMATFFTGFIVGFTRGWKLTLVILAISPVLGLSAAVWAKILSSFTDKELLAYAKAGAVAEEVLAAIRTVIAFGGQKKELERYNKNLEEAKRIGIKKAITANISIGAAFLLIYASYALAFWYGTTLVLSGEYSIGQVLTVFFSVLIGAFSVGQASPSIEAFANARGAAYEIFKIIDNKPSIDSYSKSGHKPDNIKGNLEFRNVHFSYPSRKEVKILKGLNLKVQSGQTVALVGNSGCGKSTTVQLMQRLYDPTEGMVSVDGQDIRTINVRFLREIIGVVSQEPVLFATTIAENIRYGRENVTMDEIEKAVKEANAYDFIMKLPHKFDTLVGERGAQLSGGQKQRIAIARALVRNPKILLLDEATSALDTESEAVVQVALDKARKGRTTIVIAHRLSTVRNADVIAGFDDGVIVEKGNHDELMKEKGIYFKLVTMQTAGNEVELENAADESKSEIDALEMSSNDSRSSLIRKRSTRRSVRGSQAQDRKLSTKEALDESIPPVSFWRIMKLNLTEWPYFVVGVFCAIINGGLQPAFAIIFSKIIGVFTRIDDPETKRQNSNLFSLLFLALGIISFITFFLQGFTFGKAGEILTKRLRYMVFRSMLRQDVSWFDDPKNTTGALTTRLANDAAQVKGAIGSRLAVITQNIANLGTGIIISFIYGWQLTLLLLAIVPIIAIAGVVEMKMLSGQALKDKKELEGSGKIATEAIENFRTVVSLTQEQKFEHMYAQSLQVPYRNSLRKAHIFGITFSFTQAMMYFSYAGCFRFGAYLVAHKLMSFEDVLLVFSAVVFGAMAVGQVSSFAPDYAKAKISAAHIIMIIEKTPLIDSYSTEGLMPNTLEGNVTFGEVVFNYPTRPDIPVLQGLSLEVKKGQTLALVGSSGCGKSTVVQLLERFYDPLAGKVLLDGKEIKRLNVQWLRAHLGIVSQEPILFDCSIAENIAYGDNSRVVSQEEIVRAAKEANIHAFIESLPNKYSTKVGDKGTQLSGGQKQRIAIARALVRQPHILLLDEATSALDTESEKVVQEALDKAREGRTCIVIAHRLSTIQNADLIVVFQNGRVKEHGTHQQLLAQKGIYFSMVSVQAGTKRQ
Measure name: IC50 (µM)

| Compound string | Data value |
| --- | --- |
| COc1cc(O)c2c(=O)c(OC)c(-c3ccc(OC)c(O)c3)oc2c1 | 13 |
| COc1ccc(-c2cc(=O)c3c(OC)c(OC)c(OC)cc3o2)cc1OC | 29 |
| COc1cc2oc(-c3ccccc3)cc(=O)c2c(OC)c1C | 19 |
| COc1cc(O)c2c(=O)c(OC)c(-c3ccc(OC)c(OC)c3)oc2c1 | 16 |
| COc1cc2oc(-c3ccc(O)cc3)c(OC)c(=O)c2c(O)c1OC | 14 |
| COc1c2c(c3c(c1OC)[C@@]1(OC)C4=C(C(=O)[C@H](OC)[C@@]1(OC)O3)[C@H](OC)C[C@@H](c1ccccc1)O4)[C@H](O)C[C@@H](c1ccccc1)O2 | 8 |
| COC1=C(OC)[C@]2(OC)c3c(OC)c(OC)c4c(c3O[C@@]23O[C@@H](c2ccccc2)CC=C3C1=O)[C@@H](O)C[C@H](c1ccccc1)O4 | 8 |

* * *

system: A2780 ADR; assay: Inhibition of P-gp expressed in A2780adr cells at 10 uM by calcein AM accumulation assay relative to verapamil; assay type: cell-based
Active and inactive are the calls of the source. The rule behind the calls is not given here.
Measure name: inhibition

| Compound | Data value |
| --- | --- |
| O=c1cc(-c2ccc(O)cc2)oc2cc(O)cc(O)c12 [APIGENIN] | inactive |
| COc1cc2c(c(O)c1C)C(=O)CC(c1ccccc1)O2 (stereo unspecified) | inactive |
| COc1ccc2oc(-c3ccccc3)cc(=O)c2c1 [6-METHOXYFLAVONE] | inactive |
| O=c1cc(-c2ccccc2)oc2cc(O)cc(O)c12 | inactive |
| COc1ccc2c(c1)C(=O)CC(c1ccccc1)O2 (stereo unspecified) | inactive |
| COc1cc(OC)c2c(=O)cc(-c3ccccc3)oc2c1 [CHRYSIN DIMETHYL ETHER] | inactive |
| COc1cc(O)c2c(=O)c(OC)c(-c3ccc(OC)c(O)c3)oc2c1 [AYANIN] | inactive |
| O=c1c(O)c(-c2ccc(O)c(O)c2)oc2cc(O)cc(O)c12 [QUERCETIN] | inactive |
| C[C@@H]1O[C@@H](O[C@@H]2[C@@H](O)[C@H](O)[C@@H](CO)O[C@H]2c2c(O)cc(O)c3c(=O)cc(-c4ccc(O)cc4)oc23)[C@H](O)[C@H](O)[C@H]1O | inactive |
| COc1c2c(c3c(c1OC)[C@@]1(OC)C4=C(C(=O)[C@H](OC)[C@@]1(OC)O3)[C@H](OC)C[C@@H](c1ccccc1)O4)[C@H](O)C[C@@H](c1ccccc1)O2 [CALYFLORENON B] | inactive |
| COc1cc(O)c2c(c1)O[C@H](c1ccccc1)CC2=O [PINOSTROBIN] | inactive |
| O=c1cc(-c2ccccc2)oc2ccccc12 [FLAVONE] | inactive |
| COc1ccc(-c2oc3c(OC)c(OC)c(OC)c(OC)c3c(=O)c2OC)cc1OC [3,5,6,7,8,3',4'-HEPTAMETHOXYFLAVONE] | inactive |
| COc1ccc(-c2cc(=O)c3c(OC)c(OC)c(OC)cc3o2)cc1OC [SINENSETIN] | inactive |
| O=c1c(O[C@@H]2O[C@H](CO)[C@H](O)[C@H](O)[C@H]2O)c(-c2ccc(O)c(O)c2)oc2cc(O)cc(O)c12 [HYPEROSIDE] | inactive |
| C[C@@H]1O[C@@H](Oc2ccc(-c3cc(=O)c4c(O)cc(O)c([C@@H]5O[C@H](CO)[C@@H](O)[C@H](O)[C@H]5O)c4o3)cc2)[C@H](O)[C@H](O)[C@H]1O [VITEXIN-4'-RHAMNOSIDE] | inactive |
| O=c1cc(-c2ccc(O)cc2)oc2cc(O[C@@H]3O[C@H](CO)[C@@H](O)[C@H](O)[C@H]3O)cc(O)c12 [APIGETRIN] | inactive |
| COC1=C(OC)[C@]2(OC)c3c(OC)c(OC)c4c(c3O[C@@]23O[C@@H](c2ccccc2)CC=C3C1=O)[C@@H](OC)C[C@H](c1ccccc1)O4 | inactive |
| COC1=C(OC)[C@]2(OC)c3c(OC)c(OC)c4c(c3O[C@@]23O[C@@H](c2ccccc2)CC=C3C1=O)[C@@H](O)C[C@H](c1ccccc1)O4 [NEOCALYCOPTERON] | inactive |
| O=c1c(O)c(-c2ccc(O)cc2O)oc2cc(O)cc(O)c12 [MORIN] | inactive |
| COc1cc2oc(-c3ccc(O)cc3)c(OC)c(=O)c2c(O)c1OC [PENDULETIN] | inactive |
| COc1ccc(-c2cc(=O)c3c(OC)c(OC)c(OC)c(OC)c3o2)cc1OC [NOBILETIN] | inactive |
| COc1cc(OC)c2c(c1C)OC(c1ccccc1)CC2=O (stereo unspecified) [DIMETHYLCRYPTOSTROBIN] | inactive |
| Cc1c(O)cc2c(c1O)C(=O)CC(c1ccccc1)O2 (stereo unspecified) [STROBOPININ] | inactive |
| COc1cc(O)c2c(=O)c(OC)c(-c3ccc(OC)c(OC)c3)oc2c1 [RETUSIN] | inactive |
| COc1cc2oc(-c3ccccc3)cc(=O)c2c(O)c1C | inactive |

* * *

Listing of recorded pIC50 by entry.
Target: Broad substrate specificity ATP-binding cassette transporter ABCG2 (Homo sapiens)
Sequence (Q9UNQ0 whole entry): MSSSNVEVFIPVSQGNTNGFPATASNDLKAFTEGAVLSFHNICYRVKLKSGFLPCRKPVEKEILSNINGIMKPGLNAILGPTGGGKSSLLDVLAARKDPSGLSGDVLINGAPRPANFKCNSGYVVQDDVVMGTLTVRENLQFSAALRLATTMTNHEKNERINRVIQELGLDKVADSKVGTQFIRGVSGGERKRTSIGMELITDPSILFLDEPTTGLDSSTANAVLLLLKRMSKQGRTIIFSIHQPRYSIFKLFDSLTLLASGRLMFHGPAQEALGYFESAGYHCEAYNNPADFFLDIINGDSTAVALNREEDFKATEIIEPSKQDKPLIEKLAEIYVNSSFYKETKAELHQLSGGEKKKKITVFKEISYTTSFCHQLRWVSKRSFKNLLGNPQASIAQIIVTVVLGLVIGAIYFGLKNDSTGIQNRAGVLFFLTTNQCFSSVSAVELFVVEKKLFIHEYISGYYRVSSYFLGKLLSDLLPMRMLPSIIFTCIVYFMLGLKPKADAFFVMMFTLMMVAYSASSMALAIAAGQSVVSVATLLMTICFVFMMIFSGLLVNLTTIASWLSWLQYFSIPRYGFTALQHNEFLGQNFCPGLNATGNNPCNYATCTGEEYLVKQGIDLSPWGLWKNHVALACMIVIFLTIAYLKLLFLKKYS
Assay: Inhibition of BCRP expressed in MDCK cells using Hoechst 33342 staining
Type: cell-based
Details: read-out: IC50
pIC50: −log10 of the molar value.

| Compound | pIC50 |
| --- | --- |
| O=c1c(O)c(-c2ccc(O)cc2O)oc2cc(O)cc(O)c12 | 4.68 |
| COc1cc2c(c(O)c1C)C(=O)CC(c1ccccc1)O2 (stereo not given) | 5.31 |
| COc1c2c(c3c(c1OC)[C@@]1(OC)C4=C(C(=O)[C@H](OC)[C@@]1(OC)O3)[C@H](OC)C[C@@H](c1ccccc1)O4)[C@H](O)C[C@@H](c1ccccc1)O2 | 4.54 |
| COc1cc(O)c2c(c1)O[C@H](c1ccccc1)CC2=O | 5.05 |
| COc1ccc(-c2cc(=O)c3c(OC)c(OC)c(OC)c(OC)c3o2)cc1OC | 5.31 |
